Catalogue of cell number in HSV-1-infected wells readings, one per entry.
- System: A549 infected with HSV-1
- EXPERIMENT_DESCRIPTION: cell number in HSV-1-infected wells relative to infected DMSO wells (H2B-RFP signal); higher = more surviving cells (uninfected or antiviral-protected wells give about 200%; low = toxicity)
- CONDITION_SET: 10 µM; 48 h; MOI: 0.1
The full ranking holds about 1,700 compounds; the median of “cell number in HSV-1-infected wells relative to infected DMSO wells (H2B-RFP signal)” is about 100, and the highest 2% start at about 140. This is one part of a sample in which the highest values are shown more often than they occur.

{"COMPOUND": "Clc1ccc2c(c1)CCc1cccnc1C2=C1CCNCC1", "TESTED_ON": "A549 infected with HSV-1", "UNIT_ABBREV": "%", "cell number in HSV-1-infected wells": 116}
{"COMPOUND": "OC[C@@H](O)[C@@H](O)[C@H](O)[C@@H](O)CO", "TESTED_ON": "A549 infected with HSV-1", "UNIT_ABBREV": "%", "cell number in HSV-1-infected wells": 97.2}
{"COMPOUND": "OC[C@@H](O)[C@@H](O)[C@H](O)[C@H](O)CO", "TESTED_ON": "A549 infected with HSV-1", "UNIT_ABBREV": "%", "cell number in HSV-1-infected wells": 107}
{"COMPOUND": "O=C(c1ccc(F)cc1)C1CCN(CCn2c(=O)[nH]c3ccccc3c2=O)CC1", "TESTED_ON": "A549 infected with HSV-1", "UNIT_ABBREV": "%", "cell number in HSV-1-infected wells": 124}
{"COMPOUND": "NC(=O)c1cn(Cc2c(F)cccc2F)nn1 [Rufinamide]", "TESTED_ON": "A549 infected with HSV-1", "UNIT_ABBREV": "%", "cell number in HSV-1-infected wells": 120}
